Quick list: Recovery in Ileal Efflux as a % of Intake per entry.
test: TIM-1 gastrointestinal model bioaccessibility of maqui berry anthocyanins
Assay type: in vitro ADME
assay-conditions: maqui berry extract in TIM-1, over 4 h

>  <molecule>
OC[C@H]1O[C@@H](Oc2cc(O)cc3[o+]c(-c4cc(O)c(O)c(O)c4)c(O[C@@H]4O[C@H](CO)[C@@H](O)[C@H](O)[C@H]4O[C@@H]4OC[C@@H](O)[C@H](O)[C@H]4O)cc23)[C@H](O)[C@@H](O)[C@@H]1O [Delphinidin-3-sambubioside-5-glucoside]

>  <observed-result>
0.32+/− 0.32 % of intake

$$$$
>  <molecule>
OC[C@H]1O[C@@H](Oc2cc3c(O[C@@H]4O[C@H](CO)[C@@H](O)[C@H](O)[C@H]4O)cc(O)cc3[o+]c2-c2cc(O)c(O)c(O)c2)[C@H](O)[C@@H](O)[C@@H]1O [Delphinidin-3,5-diglucoside]

>  <observed-result>
0.77 +/− 0.77 % of intake

$$$$
>  <molecule>
OC[C@H]1O[C@@H](Oc2cc3c(O)cc(O)cc3[o+]c2-c2cc(O)c(O)c(O)c2)[C@H](O)[C@@H](O)[C@@H]1O [Delphinidin-3-glucoside]

>  <observed-result>
0.87 +/− 0.78 % of intake

$$$$

In the following, a different molecule is considered.
Tell me the measured Recovery in Ileal Efflux as a % of Intake of OC[C@H]1O[C@@H](Oc2cc3c(O)cc(O)cc3[o+]c2-c2cc(O)c(O)c(O)c2)[C@H](O[C@@H]2OC[C@@H](O)[C@H](O)[C@H]2O)[C@@H](O)[C@@H]1O [Delphinidin-3-sambubioside] , please.
0.26 +/− 0.24 % of intake
